A collection of molecules and their measured cytotoxicity at 70.5 h
PROTOCOL DETAILS: Human HepG2 cell viability assay in 384 well format
Format: toxicity, cell-based
Design: dose 125 nL, time 70.5 hour; concentration not given beside the values
RUN CONDITIONS: HepG2 cells, read-out: Inhibition

- MOLECULE: "O=C([C@@H]1C[C@@H]2CCN(Cc3ccccn3)C[C@H]2O1)N1CCCO1"
  UNIT NAME: "%"
  cytotoxicity at 70.5 h: 2.74
- MOLECULE: "CC(C)Nc1nc(-c2ccccc2)nc2c1CCN(C(=O)CC#N)CC2"
  UNIT NAME: "%"
  cytotoxicity at 70.5 h: -3.92
- MOLECULE: "N#Cc1cc(NC(=O)c2cscn2)ccc1N1CCC(O)CC1"
  UNIT NAME: "%"
  cytotoxicity at 70.5 h: -4.48
- MOLECULE: "CC(C)Nc1nc2c(c(NC3CC3)n1)CN(C(=O)c1ccncc1)CC2"
  UNIT NAME: "%"
  cytotoxicity at 70.5 h: 32.7
- MOLECULE: "O=C(O)c1cn2cc(C(F)(F)F)ccc2n1"
  UNIT NAME: "%"
  cytotoxicity at 70.5 h: 2.77
- MOLECULE: "Cc1ccc(C(NC(=O)CN2CCc3c(ncn3C)C2)C2CC2)cc1 (configuration not stated)"
  UNIT NAME: "%"
  cytotoxicity at 70.5 h: -16.3
- MOLECULE: "Cc1cc(C)nc(Nc2cccc(C3CCCN(CCO)C3)n2)n1 (configuration not stated)"
  UNIT NAME: "%"
  cytotoxicity at 70.5 h: -4.13
- MOLECULE: "COCc1cccc(CNC(=O)CNc2ccccc2C(C)=O)c1"
  UNIT NAME: "%"
  cytotoxicity at 70.5 h: 1.21
- MOLECULE: "CCOc1cccc(C2CC(=O)NCc3nc(N(C)C)sc32)c1 (configuration not stated)"
  UNIT NAME: "%"
  cytotoxicity at 70.5 h: -5.3
- MOLECULE: "CC(C)CN1CCC2(CCN(Cc3ccc(F)cc3)CC2)C1=O"
  UNIT NAME: "%"
  cytotoxicity at 70.5 h: -5.32
- MOLECULE: "O=C(O)c1cc2c(c(S(=O)(=O)N(CCCO)c3ccccc3)c1)CCC2"
  UNIT NAME: "%"
  cytotoxicity at 70.5 h: -10.1
- MOLECULE: "Cn1cnc2c1CCN(Cc1csc(C3CCCCC3)n1)C2"
  UNIT NAME: "%"
  cytotoxicity at 70.5 h: -14.4
- MOLECULE: "CCc1nc(NC2CCCN(C(=O)C3CC3)C2)c2cnn(C)c2n1 (configuration not stated)"
  UNIT NAME: "%"
  cytotoxicity at 70.5 h: -15.4
- MOLECULE: "CN1C[C@@H]2CN(C(=O)C3CCOC3)C[C@@H]2C1=O (some centres not stated)"
  UNIT NAME: "%"
  cytotoxicity at 70.5 h: 9.81
- MOLECULE: "C=Cc1ccc(C(=O)N2CCCC(Nc3ccc(F)cc3)C2)cc1 (configuration not stated)"
  UNIT NAME: "%"
  cytotoxicity at 70.5 h: 17
- MOLECULE: "O=C(C1CCC1)N1CCCC(c2cccc(-n3ccnc3)n2)C1 (configuration not stated)"
  UNIT NAME: "%"
  cytotoxicity at 70.5 h: -6.13
- MOLECULE: "Cc1nn(-c2ccccc2)c(C)c1CNC1CCc2ncnn2C1 (configuration not stated)"
  UNIT NAME: "%"
  cytotoxicity at 70.5 h: 1.33
- MOLECULE: "COC(=O)c1cccc(NC(=O)CN2CCN(S(C)(=O)=O)CC2)c1"
  UNIT NAME: "%"
  cytotoxicity at 70.5 h: -9.51
- MOLECULE: "COc1ccc2nnc(C(=O)NC3CCCC3)nc2c1"
  UNIT NAME: "%"
  cytotoxicity at 70.5 h: -4.15
- MOLECULE: "Cc1noc(-c2ccnc(Oc3ccccc3CN3CCCCC3)c2)n1"
  UNIT NAME: "%"
  cytotoxicity at 70.5 h: -1.96
- MOLECULE: "CCN(C)CC1CCN(C(=O)Nc2ccc(C)cc2)C1 (configuration not stated)"
  UNIT NAME: "%"
  cytotoxicity at 70.5 h: -3.05
- MOLECULE: "CC[C@@H](c1ccccc1)n1c(C2CC2)n[nH]c1=O"
  UNIT NAME: "%"
  cytotoxicity at 70.5 h: -13
- MOLECULE: "Cn1cc(-c2ccnc(NCC3CCCCO3)n2)cn1 (configuration not stated)"
  UNIT NAME: "%"
  cytotoxicity at 70.5 h: 9.61
- MOLECULE: "O=C(Cc1ccc2c(c1)CCO2)Nc1cccnc1-n1cncn1"
  UNIT NAME: "%"
  cytotoxicity at 70.5 h: 16.3
- MOLECULE: "COc1ccc(C(C)Nc2ncc(C(N)=O)cc2Cl)cc1OC (configuration not stated)"
  UNIT NAME: "%"
  cytotoxicity at 70.5 h: -10.8
- MOLECULE: "COc1ccc(C2CCCN2C(=O)c2csc(NC(C)=O)n2)cc1 (configuration not stated)"
  UNIT NAME: "%"
  cytotoxicity at 70.5 h: -20.6
- MOLECULE: "CCc1nc(C2CCCN2Cc2ccn(C)c(=O)c2)no1 (configuration not stated)"
  UNIT NAME: "%"
  cytotoxicity at 70.5 h: -2.34
- MOLECULE: "CC(C)CC(C)N(C)C(=O)CCn1cccn1 (configuration not stated)"
  UNIT NAME: "%"
  cytotoxicity at 70.5 h: -6.33
- MOLECULE: "CC(C)OC(=O)N1CCC(c2nnc(Cn3ccnc3)n2C)CC1"
  UNIT NAME: "%"
  cytotoxicity at 70.5 h: 20.7
- MOLECULE: "CN(C)C(=O)CN1C[C@@H]2CC[C@H](C1)N(C/C=C/c1ccc(F)cc1)C2"
  UNIT NAME: "%"
  cytotoxicity at 70.5 h: -0.0436
- MOLECULE: "CC(C)c1ncc2c(n1)CN(CC1CCCCO1)CC2 (configuration not stated)"
  UNIT NAME: "%"
  cytotoxicity at 70.5 h: -2.55
- MOLECULE: "CCn1cc(CN2CCCN(C3Cc4ccccc4C3)CC2)c(C)n1"
  UNIT NAME: "%"
  cytotoxicity at 70.5 h: 24.3
- MOLECULE: "CC(C)c1ncncc1C(=O)N1CCN(Cc2cscn2)CC1"
  UNIT NAME: "%"
  cytotoxicity at 70.5 h: 22.6
- MOLECULE: "O=C(c1cccc(C2CCNC2)c1)N1CCC(c2ccncc2)CC1 (configuration not stated)"
  UNIT NAME: "%"
  cytotoxicity at 70.5 h: -18.3
- MOLECULE: "Cc1nnsc1CN1C[C@@H]2CC[C@H](C1)N(Cc1ccccc1)C2"
  UNIT NAME: "%"
  cytotoxicity at 70.5 h: 8.69
- MOLECULE: "CNc1nc2c(s1)C(=O)CN(C(=O)[C@@H](N)Cc1cccc(OC)c1)C2"
  UNIT NAME: "%"
  cytotoxicity at 70.5 h: -5.78
- MOLECULE: "CCN(Cc1nccn1C)C1CCN(c2ccccc2)C1=O (configuration not stated)"
  UNIT NAME: "%"
  cytotoxicity at 70.5 h: -2.87
- MOLECULE: "CC(C)S(=O)(=O)CCN1CCN(C(C#N)c2ccccc2)CC1 (configuration not stated)"
  UNIT NAME: "%"
  cytotoxicity at 70.5 h: -7.44
- MOLECULE: "CSc1nc(C2CC2)nc(C)c1C(=O)NCc1ncc(C)o1"
  UNIT NAME: "%"
  cytotoxicity at 70.5 h: -2.47
- MOLECULE: "O=C(c1cc(-c2ccccc2)nc2onc(C3CC3)c12)N1CC[C@H](O)C1"
  UNIT NAME: "%"
  cytotoxicity at 70.5 h: -11.3
- MOLECULE: "O=C(CC1CC1)NC[C@]12COC[C@H]1CN(c1ncccn1)C2"
  UNIT NAME: "%"
  cytotoxicity at 70.5 h: -8
- MOLECULE: "CCn1cc(N2Cc3nc(N4CCC(O)CC4)ncc3C2=O)cn1"
  UNIT NAME: "%"
  cytotoxicity at 70.5 h: 2.23
- MOLECULE: "Cn1nccc1NCc1cc2cc(F)ccc2o1"
  UNIT NAME: "%"
  cytotoxicity at 70.5 h: 23.2
- MOLECULE: "CCc1n[nH]c(C2CN(C(=O)c3ccnc(C)n3)CCO2)n1 (configuration not stated)"
  UNIT NAME: "%"
  cytotoxicity at 70.5 h: 13.5
- MOLECULE: "CCN1CC[C@]2(CN(C(=O)C3CCOCC3)C[C@H]2c2ccccc2)C1=O"
  UNIT NAME: "%"
  cytotoxicity at 70.5 h: 0.473
- MOLECULE: "CNC(=O)c1ncn2c1CN(CCC(C)C)S(=O)(=O)c1ccccc1-2"
  UNIT NAME: "%"
  cytotoxicity at 70.5 h: -9.5
- MOLECULE: "c1csc(-c2noc(CCCNC3CCc4ncnn4C3)n2)c1 (configuration not stated)"
  UNIT NAME: "%"
  cytotoxicity at 70.5 h: -4.28
